test: Rat serum stability studies (remaining active peptide by DiscoveRx cAMP on CHO-VPAC2 cells); type: in vitro ADME
Where no end group is shown, it is not given here. [ ]: non-standard residue; d: D form. The star is where a group is joined. Orn = NCCC[C@H](N)C(=O)O; Hexanoyl = CCCCCC(=O)*; Aib = CC(C)(N)C(=O)O
readout_kind: Rat Serum Stability (estimated purity in % after 18 hours) (%)
Give the value, in units of %, as a plain number.

These solved cases illustrate the format of a correct answer.
INSERT INTO assay_data (substance, observed) VALUES
  ('Hexanoyl-HSDAVFTDNYTRL[Aib]KQVAAK[Aib]YLQSIKNKRYGGPSSGAPPPS [Agonist P244]', 30.64),
  ('Hexanoyl-HSDAVFTDNYTRLR[Aib]QVAALKYLQSIKNKRYGGPSSGAPPPS [Agonist P265]', 8.70);

In the following, a different substance is considered.
Query (substance): Hexanoyl-HSDAVFTDNYTRLR[Aib]QVAA[Aib][Orn]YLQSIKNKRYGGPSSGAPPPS [Agonist P342] ; field requested: Rat Serum Stability (estimated purity in % after 18 hours) 25.96
